assay: physchem; conditions: 20 °C
# solubility values compiled below
quantity: solubility

INSERT INTO results (molecule, result) VALUES
  ('O=C([O-])C1(O)CSC(O)(C(=O)[O-])CS1.[Li+].[Li+] (stereo not drawn) [Compound 3b]', '1050 mM'),
  ('O=C(O)C1(O)CSC(O)(C(=O)O)CS1 (stereo not drawn) [Compound 2]', '200 mM'),
  ('O=C([O-])C1(O)CSC(O)(C(=O)[O-])CS1.[K+].[K+] (stereo not drawn) [Compound 3c]', '570 mM');

Source: patent US9757354B2
